Entries and their solubility
test: Solubility of the compound in PBS at pH 6.9; assay type: physicochemical
State the answer as a number, implicitly in µg/mL.

> print(dat)
                             compoundstring  measuredproperty  readingunit  readoutnumber
1  N#CCNC(=O)c1ccc(-c2nc(Nc3ccc(N4CCC(N5CCOCC5)CC4)cc3)ncc2F)cc1        solubility        µg/mL             28
2  N#CCNC(=O)c1ccc(-c2nc(Nc3ccc(N4CCC(N5CCOCC5)CC4)cc3)ncc2Cl)cc1        solubility        µg/mL             20
3  Cc1cnc(Nc2ccc(N3CCC(N4CCOCC4)CC3)cc2)nc1-c1ccc(C(=O)NCC#N)cc1        solubility        µg/mL             28

[in] # input compound: `N#CCNC(=O)c1ccc(-c2ccnc(Nc3ccc(N4CCOCC4)cc3)n2)cc1` ; wanted: its solubility
[out] 0.2

* * *

Entries and their inhibition
Target: Tyrosine-protein kinase JAK3 (Homo sapiens)
Sequence (whole entry): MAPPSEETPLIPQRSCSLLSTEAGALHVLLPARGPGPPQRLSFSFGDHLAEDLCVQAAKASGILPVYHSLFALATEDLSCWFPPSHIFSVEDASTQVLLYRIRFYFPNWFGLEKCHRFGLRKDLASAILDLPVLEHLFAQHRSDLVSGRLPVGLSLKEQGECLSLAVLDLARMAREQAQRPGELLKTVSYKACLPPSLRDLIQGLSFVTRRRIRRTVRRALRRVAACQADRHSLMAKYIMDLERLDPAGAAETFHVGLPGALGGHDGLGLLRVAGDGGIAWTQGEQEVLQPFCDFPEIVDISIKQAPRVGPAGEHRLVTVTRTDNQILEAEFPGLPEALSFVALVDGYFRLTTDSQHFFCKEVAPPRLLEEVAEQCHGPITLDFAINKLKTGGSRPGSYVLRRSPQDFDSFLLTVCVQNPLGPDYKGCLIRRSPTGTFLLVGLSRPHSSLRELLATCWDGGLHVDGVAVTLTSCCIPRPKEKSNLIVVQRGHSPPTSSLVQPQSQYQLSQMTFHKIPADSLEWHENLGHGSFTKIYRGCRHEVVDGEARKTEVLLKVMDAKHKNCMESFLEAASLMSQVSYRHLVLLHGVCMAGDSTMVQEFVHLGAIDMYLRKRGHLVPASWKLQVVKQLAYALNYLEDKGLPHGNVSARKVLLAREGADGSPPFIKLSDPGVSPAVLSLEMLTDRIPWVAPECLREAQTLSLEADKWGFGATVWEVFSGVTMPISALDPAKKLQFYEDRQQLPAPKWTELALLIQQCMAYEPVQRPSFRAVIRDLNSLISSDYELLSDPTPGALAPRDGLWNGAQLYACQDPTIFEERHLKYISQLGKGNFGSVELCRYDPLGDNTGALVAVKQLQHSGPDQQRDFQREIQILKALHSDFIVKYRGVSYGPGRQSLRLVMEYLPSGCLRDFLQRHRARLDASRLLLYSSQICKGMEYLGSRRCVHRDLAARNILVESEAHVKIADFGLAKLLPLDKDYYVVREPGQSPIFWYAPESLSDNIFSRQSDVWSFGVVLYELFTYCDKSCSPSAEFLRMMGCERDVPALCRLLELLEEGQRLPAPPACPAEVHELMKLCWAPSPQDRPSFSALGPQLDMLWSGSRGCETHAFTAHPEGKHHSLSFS
Assay: Inhibition of human JAK3 kinase domain at 10 nM relative to control
State the answer as a number, implicitly in %.

Recorded inhibition, per entry:
> print(dat)
                                   compound  readoutnumber
1  N#CCNC(=O)c1ccc(-c2ccnc(Nc3ccc(N4CCOCC4)cc3)n2)cc1              4
2  N#CCNC(=O)c1ccc(-c2ccnc(Nc3ccc(N4CC5CC(C4)O5)cc3)n2)cc1              2
3  CC(=O)N1C2CC1CN(c1ccc(Nc3nccc(-c4ccc(C(=O)NCC#N)cc4)n3)cc1)C2             13

[in] # input compound: N#CCNC(=O)c1ccc(-c2ccnc(Nc3ccc(N4CC5OCCOC5C4)cc3)n2)cc1 (centres undefined) ; wanted: its inhibition
[out] 11
